assay: Cytotoxicity against human A549 cells; type: cell-based
value.type: CC50

Field request: CC50 | item: N#CCCN(CCn1cnc2c(=O)[nH]cnc21)CCP(=O)(O)O
> 300 µM

Field request: CC50 | item: N#CCCN(CCn1cnc2c(=O)[nH]c(N)nc21)CCP(=O)(O)O
> 300 µM

Field request: CC50 | item: O=c1[nH]cnc2c1ncn2CCN(CCOCCP(=O)(O)O)CCP(=O)(O)O
39 µM

Field request: CC50 | item: Nc1nc2c(ncn2CCN(CCOCCP(=O)(O)O)CCP(=O)(O)O)c(=O)[nH]1
210 µM

====

test: Selectivity index, ratio of CC50 for human A549 cells to IC50 for Plasmodium falciparum D6; assay type: functional
value.type: Ratio CC50/IC50

Field request: Ratio CC50/IC50 | item: Nc1nc2c(ncn2CCN(CCOCCP(=O)(O)O)CCP(=O)(O)O)c(=O)[nH]1
35

Field request: Ratio CC50/IC50 | item: CC(C)OC(=O)[C@H](Cc1ccccc1)NP(=O)(CCN(CCC#N)CCn1cnc2c(=O)[nH]c(N)nc21)N[C@@H](Cc1ccccc1)C(=O)OC(C)C
2.6

Field request: Ratio CC50/IC50 | item: O=c1[nH]cnc2c1ncn2CCN(CCCCP(=O)(O)O)CCP(=O)(O)O
29

Field request: Ratio CC50/IC50 | item: O=c1[nH]cnc2c1ncn2CCN(CCOCCP(=O)(O)O)CCP(=O)(O)O
19

Field request: Ratio CC50/IC50 | item: Nc1nc2c(ncn2CCN(CCCCP(=O)(O)O)CCP(=O)(O)O)c(=O)[nH]1
40

Field request: Ratio CC50/IC50 | item: CC(C)OC(=O)[C@H](Cc1ccccc1)NP(=O)(CCN(CCC#N)CCn1cnc2c(=O)[nH]cnc21)N[C@@H](Cc1ccccc1)C(=O)OC(C)C
>25
